Tested on: Ub-PCNA levels in the nucleus of ES2 cells (USP1 activity)
Method notes: ES2 Ub-PCNA immunofluorescence (IF) assay
Assay type: cell-based
Condition summary: Homo sapiens, ES-2; ES2 cells, 3 hours, Ub-PCNA immunofluorescence; read-out: USP1 IC50 (Ub-PCNA)

| Compound | IC50 |
| --- | --- |
| Cc1cnn(C(C)C)c1-c1cc2n(n1)CCCN2Cc1ccc(-c2nc(C(F)(F)F)cn2C)c(F)c1 | < 100 nM |
| CCn1cc(C(F)(F)F)nc1-c1ccc(CN2C(=O)CCn3nc(-c4c(OC)ncnc4C4CC4)cc32)cc1F | < 100 nM |
| Cc1cnn(C(C)C)c1-c1cc2n(n1)CCC(=O)N2Cc1ccc(-n2nc(C(F)(F)F)cc2C)cc1 | 100 to 500 nM |
| COc1cc(C(F)(F)F)nn1-c1ccc(CN2C(=O)CCn3nc(-c4c(C)cnn4C(C)C)cc32)cc1F | 100 to 500 nM |
| Cc1cnn(C(C)C)c1-c1nc2n(n1)CCCN2Cc1ccc(-c2nc(C(F)(F)F)cn2C(C)C)cc1 | < 100 nM |
| CCn1cc(C(F)(F)F)nc1-c1ccc(CN2CCCn3nc(-c4c(OC)ncnc4C4CC4)cc32)cc1F | < 100 nM |
| COc1ccc(C)nc1-c1ccc(CN2C(=O)CCn3nc(-c4c(Cl)cnn4C(C)C)cc32)cc1Cl | 100 to 500 nM |
| CCn1cc(C(F)(F)F)nc1-c1ccc(NC2CCCn3nc(-c4c(Cl)cnn4C(C)C)cc32)cc1F (centres unmarked) | 100 to 500 nM |
| CCn1cc(C(F)(F)F)nc1-c1c(F)cc(CN2C(=O)CCn3nc(-c4c(Cl)cnn4C(C)C)cc32)cc1OC | < 100 nM |
| CCn1cc(C(F)(F)F)nc1-c1ccc(N(CCO)C2CCCn3nc(-c4c(Cl)cnn4C(C)C)cc32)cc1F (centres unmarked) | < 100 nM |
| CCn1cc(C(F)(F)F)nc1-c1ccc(CN2C(=O)CCn3nc(-c4c(Cl)cnn4C(C)COC)cc32)cc1F (centres unmarked) | 100 to 500 nM |
| COc1c(CN2C(=O)CCn3nc(-c4c(Cl)cnn4C(C)C)nc32)ccc(-c2nc(C(F)(F)F)cn2C(C)C)c1F | 100 to 500 nM |
| COc1ncnc(C2CC2)c1-c1cc2n(n1)CCC(=O)N2[C@@H](C)c1ccc(-c2nc(C(F)(F)F)cn2C(C)C)cc1 | > 500 nM |
| CCn1cc(C(F)(F)F)nc1-c1ccc([C@@H](C)N2C(=O)CCn3nc(-c4c(Cl)cnn4C(C)C)nc32)cc1F | < 100 nM |

---

Target system: USP1/UAF1 enzyme (Homo sapiens, UniProt O94782)
Sequence (O94782 whole entry): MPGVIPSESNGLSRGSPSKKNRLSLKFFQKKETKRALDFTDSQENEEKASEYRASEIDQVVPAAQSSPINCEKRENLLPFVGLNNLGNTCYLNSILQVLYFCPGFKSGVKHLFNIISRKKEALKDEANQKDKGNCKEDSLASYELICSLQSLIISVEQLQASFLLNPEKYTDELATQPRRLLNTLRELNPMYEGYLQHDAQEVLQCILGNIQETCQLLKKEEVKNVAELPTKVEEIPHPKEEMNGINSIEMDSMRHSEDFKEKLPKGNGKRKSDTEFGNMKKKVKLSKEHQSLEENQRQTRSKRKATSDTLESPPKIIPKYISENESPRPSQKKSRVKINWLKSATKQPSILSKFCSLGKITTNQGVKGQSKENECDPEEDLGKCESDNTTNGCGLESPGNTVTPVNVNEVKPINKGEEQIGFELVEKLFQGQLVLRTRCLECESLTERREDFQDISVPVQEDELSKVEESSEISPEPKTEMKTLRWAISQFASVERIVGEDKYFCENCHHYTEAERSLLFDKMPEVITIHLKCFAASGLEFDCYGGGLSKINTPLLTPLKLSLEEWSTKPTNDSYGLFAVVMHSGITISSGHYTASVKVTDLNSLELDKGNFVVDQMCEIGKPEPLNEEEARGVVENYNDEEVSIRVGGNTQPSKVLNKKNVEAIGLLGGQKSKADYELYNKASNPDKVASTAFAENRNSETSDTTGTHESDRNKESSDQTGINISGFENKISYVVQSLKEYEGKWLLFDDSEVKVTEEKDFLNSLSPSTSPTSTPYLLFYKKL
Sequence (Q8TAF3 whole entry partner): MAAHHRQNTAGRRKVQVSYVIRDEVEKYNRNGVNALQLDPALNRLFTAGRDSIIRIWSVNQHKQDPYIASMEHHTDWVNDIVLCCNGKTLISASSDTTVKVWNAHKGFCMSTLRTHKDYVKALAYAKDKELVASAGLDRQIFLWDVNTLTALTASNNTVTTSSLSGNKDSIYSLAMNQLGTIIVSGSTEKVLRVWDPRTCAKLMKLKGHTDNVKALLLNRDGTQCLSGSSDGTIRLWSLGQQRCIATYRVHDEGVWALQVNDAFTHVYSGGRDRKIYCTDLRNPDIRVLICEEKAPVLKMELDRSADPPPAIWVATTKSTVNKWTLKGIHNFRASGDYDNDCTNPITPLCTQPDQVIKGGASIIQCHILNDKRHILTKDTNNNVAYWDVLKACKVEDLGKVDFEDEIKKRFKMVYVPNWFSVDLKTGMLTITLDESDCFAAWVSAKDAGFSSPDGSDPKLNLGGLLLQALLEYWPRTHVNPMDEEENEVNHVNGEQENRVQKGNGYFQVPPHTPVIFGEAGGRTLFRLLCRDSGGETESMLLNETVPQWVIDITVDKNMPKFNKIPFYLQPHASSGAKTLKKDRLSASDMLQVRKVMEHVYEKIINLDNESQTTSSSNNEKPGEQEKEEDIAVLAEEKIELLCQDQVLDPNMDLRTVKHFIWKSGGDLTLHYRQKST
Method notes: USP1/UAF1 deubiquitination assay (ubiquitin-rhodamine 110 substrate)
Condition summary: read-out: USP1 IC50 (Ub-Rho)
pIC50: −log10 of the molar value.
The following compounds are shown together with reported pIC50 values.

| Compound | pIC50 |
| --- | --- |
| CC(C)n1cc(C(F)(F)F)nc1-c1ccc(C(N2CCCn3nc(-c4c(Cl)cnn4C(C)C)cc32)C(F)(F)F)cc1F (centres unmarked) | > 7.00 |
| CCn1cc(C(F)(F)F)nc1-c1ccc(CN2C(=O)CCn3nc(-c4c(C)cnn4C(C)C)cc32)cc1 | > 7.00 |
| CCn1cc(C(F)(F)F)nc1-c1ccc(CN2C(=O)CCn3nc(-c4c(OC)ncnc4C4CC4)nc32)cc1OC | 6.30 to 7.00 |
| CCn1cc(C(F)(F)F)nc1-c1ccc(N[C@@H]2CCCn3nc(-c4c(Cl)cnn4[C@H](C)CF)cc32)cc1 (single isomer, unassigned) | > 7.00 |
| Cn1cc(C(F)(F)F)nc1-c1ccc(CN2C(=O)CCn3nc(-c4c(OC(F)F)ncnc4C4CC4)nc32)cc1F | > 7.00 |
| CCn1cc(C(F)(F)F)nc1-c1ccc([C@@H](C)N2CCCn3nc(-c4c(Cl)cnn4C(C)C)cc32)cc1 (single isomer, unassigned) | > 7.00 |
| Cc1cnn(C(C)C)c1-c1cc2n(n1)CCCN2Cc1ccc(-c2nc(C(F)(F)F)cn2C)c(F)c1 | > 7.00 |
| COc1cccc(C)c1-c1cc2n(n1)CCC(=O)N2Cc1ccc(-c2nc(C(F)(F)F)cn2C)cc1 | > 7.00 |
| CCn1cc(C(F)(F)F)nc1-c1ccc(CN2C(=O)CCn3nc(-c4c(Cl)cnn4C(C)COC)cc32)cc1F (centres unmarked) | > 7.00 |
| CCn1cc(C(F)(F)F)nc1-c1ccc(CC2NCCn3nc(-c4c(Cl)cnn4C(C)C)cc32)cc1 (centres unmarked) | 6.30 to 7.00 |
| CCn1cc(C(F)(F)F)nc1-c1ccc(CN2C(=O)CCn3nc(-c4c(OC)ncnc4C4CC4)nc32)cc1 | > 7.00 |
| CCn1cc(C(F)(F)F)nc1-c1ccc(CN2CC(O)Cn3nc(-c4c(Cl)cnn4C(C)C)cc32)cc1F (centres unmarked) | > 7.00 |
| CCn1cc(C(F)(F)F)nc1-c1ccc([C@H](C)N2C(=O)CCn3nc(-c4c(OC)ncnc4C4CC4)cc32)cc1 | 6.30 to 7.00 |
| CCn1cc(C(F)(F)F)nc1-c1ccc(Cn2c(=O)ccn3nc(-c4c(Cl)cnn4C(C)C)nc23)cc1F | > 7.00 |
